The following compounds are shown together with reported inhibition in vivo at 100 mg/kg values.
Tested on: adjuvant induced polyarthritis
Assay: Inhibition of adjuvant induced polyarthritis in rats (hind paw volume)
Assay type: in vivo, Sprague Dawley rat
Settings: Rattus norvegicus, 552 h; 100 mg/kg of body weight, daily oral, day 23; read-out: Inhibition % 23 days (increase of hind paw volume)
Procedure: Effect of the compounds of this invention on the development of adjuvant-induced polyarthritis in rats was assayed as follows: Adjuvant arthritis was produced by a single intracutaneous injection of 0.1 ml of the adjuvant mixture containing heat-killed mycobacteria of the human Aoyama B strain suspended in liquid paraffin in 0.6% in the middle part of the distal tail of Sprague Dawley rat (female, 8 weeks old). […]
State just the number; it will be interpreted in %.

Observe how each entry below is paired with its result.
O=C(OCc1cccc2ccccc12)[C@@H]1O[C@H]1C(=O)OCc1cccc2ccccc12 (relative stereo) [EP-81, di-1'-naphthylmethyl epoxysuccinate] ... 83.6
COc1ccc(COC(=O)[C@@H]2O[C@H]2C(=O)O)cc1 (relative stereo) [EP-102, p-methoxybenzyl potassium epoxysuccinate] ... 31
O=C(OCc1cccc(F)c1)[C@H]1O[C@@H]1C(=O)OCc1cccc(F)c1 (relative stereo) [EP-121, di-m-fluorobenzyl epoxysuccinate] ... 38.9
CCOC(=O)[C@H]1O[C@@H]1C(=O)O (relative stereo) [EP-137, ethyl potassium epoxysuccinate] ... 38.5

Bench note: what inhibition in vivo at 100 mg/kg did C[C@H]1CC[C@@H](OC(=O)[C@@H]2O[C@H]2C(=O)O[C@H]2CC[C@@H](C)CC2)CC1 (relative stereo) show?
78.7

Record request: inhibition in vivo at 100 mg/kg value, item O=C(OCc1cccs1)[C@@H]1O[C@H]1C(=O)OCc1cccs1 (relative stereo) [EP-79, di-2-thenyl epoxysuccinate]
90.2
